// data source = patent US7232929B2

# assayOverview: neurotoxicity, rotorod ataxia test, mice, ip
# conditionParameters: mouse, in vivo
attributeMeasured: TD50 (mg/kg)
Numbers only; they are read as mg/kg.

## Input Quickly give me recorded TD50 for CONC(=O)C1C(C)(C)C1(C)C [Compound V]
## Output 166
